B1: TPR t1 (parent)
chain: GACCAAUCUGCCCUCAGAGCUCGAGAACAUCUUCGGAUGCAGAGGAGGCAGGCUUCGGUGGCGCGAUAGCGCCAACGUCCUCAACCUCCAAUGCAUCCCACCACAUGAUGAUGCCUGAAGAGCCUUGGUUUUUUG

variants of: B1; assay: polymerase ribozyme fitness, log enrichment relative to wild type (log ratio); higher = more active; in vitro selection for triplet polymerase activity
Listed here: items and their measured polymerase ribozyme fitness (log ratio).
Hey, just send me the number, nothing else.

# annotated cases, reported polymerase ribozyme fitness (log ratio) shown
> print(dat)
                          variant.code                              result.type  assay.value
1                            U32A C56A  polymerase ribozyme fitness (log ratio)        -3.44
2  G10U C20A C40U A46G C62U C82U C114A  polymerase ribozyme fitness (log ratio)        -3.36
3                       C40G G69A A84C  polymerase ribozyme fitness (log ratio)        -3.83
4      C34A C40A C49G G77A U112A C115G  polymerase ribozyme fitness (log ratio)        -7.22
5                C73U U81A U116G U125A  polymerase ribozyme fitness (log ratio)        -4.02

Return value of polymerase ribozyme fitness (log ratio) for input C13G C34A , no commentary.
-4.26

Return value of polymerase ribozyme fitness (log ratio) for input G63U C70G A118G U125A , no commentary.
-1.35

Return value of polymerase ribozyme fitness (log ratio) for input A24G U96G C102A , no commentary.
-5.25

Return value of polymerase ribozyme fitness (log ratio) for input A6U G60U C64U A91G C102G G110U , no commentary.
-7.78

Return value of polymerase ribozyme fitness (log ratio) for input A37U G44A U87G A119U G128C , no commentary.
-3.53

Return value of polymerase ribozyme fitness (log ratio) for input C15A G60U U131A , no commentary.
-1.3

Return value of polymerase ribozyme fitness (log ratio) for input C70G C72U C123A U129G U133G , no commentary.
-2.93

Return value of polymerase ribozyme fitness (log ratio) for input C22U G63C G120U , no commentary.
-4.89

Return value of polymerase ribozyme fitness (log ratio) for input A24C C56U C114G , no commentary.
-5.71

Return value of polymerase ribozyme fitness (log ratio) for input G52U C56U C62U U130A , no commentary.
-1.37

Return value of polymerase ribozyme fitness (log ratio) for input U112C C124G , no commentary.
1.79

Return value of polymerase ribozyme fitness (log ratio) for input U9G A26U G39U U78C C82G , no commentary.
-4.7

Return value of polymerase ribozyme fitness (log ratio) for input A111G G113C , no commentary.
-2.06

Return value of polymerase ribozyme fitness (log ratio) for input U55G C62U C102A , no commentary.
-1.77
